Test system: PPARg:RXRa 270nM:90nM, anti-RXR (NR concentration 270 nM, RXRa partner concentration 90 nM)
Experiment: PBM binding z-score (relative to random genomic background probes); higher = stronger binding; sequences stand for … in GC…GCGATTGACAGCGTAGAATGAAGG
PARAMETER: PBM binding z-score
Please reply with the number alone, leaving off any unit.

In one line, give reported PBM binding z-score of the entry "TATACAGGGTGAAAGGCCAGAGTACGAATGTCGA" .
5.48

In one line, give reported PBM binding z-score of the entry "GCTATTAGATGAAAGGGCAACCGAATGATTCTCG" .
5.46

In one line, give reported PBM binding z-score of the entry "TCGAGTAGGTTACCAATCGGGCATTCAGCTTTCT" .
1.08

In one line, give reported PBM binding z-score of the entry "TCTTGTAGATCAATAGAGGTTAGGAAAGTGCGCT" .
2.04

In one line, give reported PBM binding z-score of the entry "TGTCAAAGTCCAAAGGTAACGTAAGTATCCACAC" .
2.93

In one line, give reported PBM binding z-score of the entry "TCTCGAAGGACACGAAGGTCAGAGCTTTCCAGAG" .
1.8

In one line, give reported PBM binding z-score of the entry "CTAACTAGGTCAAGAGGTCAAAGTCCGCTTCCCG" .
8.4

In one line, give reported PBM binding z-score of the entry "AGAACGAGGGCAATGAGATGATAGCACGGGTGGC" .
0.593

In one line, give reported PBM binding z-score of the entry "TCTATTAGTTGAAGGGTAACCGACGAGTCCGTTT" .
2.8

In one line, give reported PBM binding z-score of the entry "TCTATTGGTTGATTAGGGCAACCGAAACAGCGGA" .
1.86

In one line, give reported PBM binding z-score of the entry "ATCGAAAGGTCGAGATGAGTATAGAGAAAGGGAA" .
2.97

In one line, give reported PBM binding z-score of the entry "CCAGACAGGTGAGAAGGCAACTCAGCCTCGATTA" .
0.793

In one line, give reported PBM binding z-score of the entry "CCTATTAGTTGACCATAAGTGCAACCGAAGCTCG" .
0.74

In one line, give reported PBM binding z-score of the entry "GCTAGCAGGCCATTTGCGTCACTCAATGACGGGC" .
-0.578

In one line, give reported PBM binding z-score of the entry "GCTTGTAGATCAAGGTAAAGAAAGACTAAGCTAA" .
0.28

In one line, give reported PBM binding z-score of the entry "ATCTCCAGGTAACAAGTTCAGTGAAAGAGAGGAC" .
1.21

In one line, give reported PBM binding z-score of the entry "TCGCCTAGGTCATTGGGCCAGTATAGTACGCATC" .
3.57

In one line, give reported PBM binding z-score of the entry "AGAATGAGGTTACCAAAGATCCGGGAAACGCTTG" .
2.84

In one line, give reported PBM binding z-score of the entry "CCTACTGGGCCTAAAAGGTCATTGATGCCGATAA" .
3.24

In one line, give reported PBM binding z-score of the entry "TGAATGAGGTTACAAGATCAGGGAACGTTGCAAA" .
2.54

In one line, give reported PBM binding z-score of the entry "GGAACGAGGGCATTCGCGTTGATAGCATGGCGAT" .
0.655

In one line, give reported PBM binding z-score of the entry "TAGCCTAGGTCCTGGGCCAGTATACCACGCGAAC" .
-0.469

In one line, give reported PBM binding z-score of the entry "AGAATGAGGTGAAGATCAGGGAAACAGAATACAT" .
2.21

In one line, give reported PBM binding z-score of the entry "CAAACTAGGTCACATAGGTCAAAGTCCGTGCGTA" .
7.44

In one line, give reported PBM binding z-score of the entry "GATATTAGTTGAAAGGGCAACCGAATGATTCTCG" .
4.65

In one line, give reported PBM binding z-score of the entry "CGAACTAGGTCACGGACAGTGAATCTCCGCACGC" .
7.68

In one line, give reported PBM binding z-score of the entry "CCTAGTTGGTCAGGAGTTCACACACCGGATATGA" .
1.95

In one line, give reported PBM binding z-score of the entry "CCAGACAGATGAAAGGTAACTCAGTCTGGTACGC" .
1.21

In one line, give reported PBM binding z-score of the entry "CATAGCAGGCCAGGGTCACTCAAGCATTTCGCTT" .
2.27

In one line, give reported PBM binding z-score of the entry "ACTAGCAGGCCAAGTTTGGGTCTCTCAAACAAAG" .
-0.524

In one line, give reported PBM binding z-score of the entry "TCGAGTATGTTAGGGGCATTCAGAATGGCGTCGA" .
0.882

In one line, give reported PBM binding z-score of the entry "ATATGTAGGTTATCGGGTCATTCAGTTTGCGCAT" .
6.32

In one line, give reported PBM binding z-score of the entry "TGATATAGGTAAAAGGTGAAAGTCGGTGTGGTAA" .
8.88

In one line, give reported PBM binding z-score of the entry "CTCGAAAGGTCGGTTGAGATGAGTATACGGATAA" .
0.887

In one line, give reported PBM binding z-score of the entry "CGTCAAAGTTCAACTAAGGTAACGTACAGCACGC" .
5.62

In one line, give reported PBM binding z-score of the entry "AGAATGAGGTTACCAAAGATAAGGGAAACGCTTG" .
2.43

In one line, give reported PBM binding z-score of the entry "TTATATAGGTAATACAGGTGAAAGTCGGCATCTA" .
3.07

In one line, give reported PBM binding z-score of the entry "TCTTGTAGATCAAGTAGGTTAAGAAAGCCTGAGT" .
1.46

In one line, give reported PBM binding z-score of the entry "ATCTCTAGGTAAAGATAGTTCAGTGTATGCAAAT" .
0.452

In one line, give reported PBM binding z-score of the entry "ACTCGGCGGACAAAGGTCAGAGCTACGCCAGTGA" .
5.97

In one line, give reported PBM binding z-score of the entry "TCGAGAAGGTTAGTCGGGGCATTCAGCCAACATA" .
1.2

In one line, give reported PBM binding z-score of the entry "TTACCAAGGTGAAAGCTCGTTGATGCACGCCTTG" .
1.43

In one line, give reported PBM binding z-score of the entry "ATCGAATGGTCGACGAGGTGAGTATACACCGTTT" .
-0.273

In one line, give reported PBM binding z-score of the entry "GCTTGTAGTTCAAGGTTAAGAAAGACTAAGCTAA" .
2.09

In one line, give reported PBM binding z-score of the entry "TTACCAAGGTGAAGGTCGTTAATCCCTCTGTAGA" .
3.89

In one line, give reported PBM binding z-score of the entry "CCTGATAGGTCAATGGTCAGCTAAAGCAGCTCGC" .
4.96

In one line, give reported PBM binding z-score of the entry "TAGCCTAGGTCAATCAGGGGCCAGTATAGAAAGC" .
2.28

In one line, give reported PBM binding z-score of the entry "TCTAGCAGGCCAGAGGGTCACTCAGGAGGTACGG" .
2.66

In one line, give reported PBM binding z-score of the entry "ACTTACGGGTCAACGAGGTTATATCACGCGTATA" .
4.92

In one line, give reported PBM binding z-score of the entry "GCTCGGAGGCCAAGGTCAGAGCTTTGTCCGTAGA" .
1.47

In one line, give reported PBM binding z-score of the entry "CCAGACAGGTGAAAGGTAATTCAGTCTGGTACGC" .
5.83
